So I've got a bunch of compounds here, and I need their metabolised at 0.25 h, 1 µM values.
test: Metabolic stability in mouse liver microsomes assessed as compound metabolized at 1 uM after 15 mins; type: ADME, microsome; settings: read-out: Drug metabolism
One number for each entry, in %.

Example results:
CCCC[C@@H](CCO)Nc1nc(N)nc2cc(C)ccc12	98
CCC[C@@H](CCO)Nc1nc(N)nc2ccc(C)cc12	97
CCCC[C@@H](CCO)Nc1nc(N)nc2cc(F)ccc12	91
CCCC[C@@H](CCO)Nc1nc(N)nc2cccc(C)c12	82
CCCC[C@@H](CCO)Nc1nc(N)nc2ccc(F)cc12	63

Below are 8 compounds. Give each one its metabolised at 0.25 h, 1 µM.
1. CCCC[C@@H](CCO)Nc1nc(N)nc2cc(OC)ccc12
2. CCC[C@@H](CCO)Nc1nc(N)nc2cc(OC)ccc12
3. CCCC[C@@H](CCO)Nc1nc(N)nc2ccc(OC)cc12
4. CCC[C@@H](CCO)Nc1nc(N)nc2cc(F)ccc12
5. CCC[C@@H](CCO)Nc1nc(N)nc2c(F)cccc12
6. CCC[C@@H](CCO)Nc1nc(N)nc2cccc(F)c12
7. CCCC[C@@H](CCO)Nc1nc(N)nc2ccc(C)cc12
8. CCC[C@@H](CCO)Nc1nc(N)nc2ccc(F)cc12

Reply:
[80, 65, 97, 100, 93, 47, 99, 47]

Below are 2 compounds. Give each one its metabolised at 0.25 h, 1 µM.
1. CCC[C@@H](CCO)Nc1nc(N)nc2ccccc12
2. CCCC[C@@H](CCO)Nc1nc(N)nc2cccc(F)c12

Reply:
1. 72
2. 25
